All values here come from ChEMBL document CHEMBL3232885.

Test system: Escherichia coli
Assay Text: Antibacterial activity against Escherichia coli MTCC 443 assessed as growth inhibition after 24 to 48 hrs by broth microdilution method
Type: functional
# MIC per record follows
Supply the numeric figure in µg/mL, leaving out any unit text.

Which MIC value is on record for Cc1nn(-c2ccccc2)c(-n2ccnc2)c1C1C(C(N)=O)=C(N)N(c2cccc(O)c2)C2=C1C(=O)CC(C)(C)C2 (centres undefined) ?
125

Repeat for the following molecule: CCOC(=O)C1=C(N)N(c2ccc(O)cc2)C2=C(C(=O)CC(C)(C)C2)C1c1c(C)nn(-c2ccccc2)c1-n1ccnc1 (centres undefined)
200

Again, but for CCn1cc(C(=O)O)c(=O)c2cc(F)c(N3CCNCC3)cc21 [NORFLOXACIN]
50

Input Cc1nn(-c2ccccc2)c(-n2ccnc2)c1C1C(C#N)=C(N)N(c2ccc(Cl)cc2)C2=C1C(=O)CC(C)(C)C2 (centres undefined)
500
